// data source = ChEMBL document CHEMBL4177759

# test.summary: AUC (0 to t) in Beagle dog at 0.3 mg/kg, iv by LC-MS/MS method
# Type: ADME, organism-based, Canis lupus familiaris
# run.conditions: in vivo
attribute.measured: AUC(0-t) (µM·h)

[[record]]
molecular_string = "COC(=O)Nc1nc2ccc(C(=O)c3ccccc3)cc2[nH]1"
recorded_result = 0.9


###

# test.summary: Prodrug conversion in naive mouse plasma assessed as mebendazole formation by measuring remaining parent drug at 10 uM measured at 60 mins by LC-MS/MS method
# Type: ADME, cell-free
# run.conditions: 1 h
attribute.measured: Stability (%)

[[record]]
molecule = "COC(=O)Nc1nc2cc(C(=O)c3ccccc3)ccc2n1COP(=O)(O)O"
attribute_measured = "Stability"
unit_symbol = "%"
recorded_result = 62

[[record]]
molecule = "COC(=O)Nc1nc2cc(C(=O)c3ccccc3)ccc2n1COC(=O)CNC(=O)[C@H](CC(C)C)NC(C)=O"
attribute_measured = "Stability"
unit_symbol = "%"
recorded_result = 0

[[record]]
molecule = "COC(=O)Nc1nc2cc(C(=O)c3ccccc3)ccc2n1COC(=O)CCC(=O)O"
attribute_measured = "Stability"
unit_symbol = "%"
recorded_result = 78

[[record]]
molecule = "COC(=O)Nc1nc2cc(C(=O)c3ccccc3)ccc2n1COC(=O)OC[C@H]1OC(O)[C@H](O)[C@@H](O)[C@@H]1O (stereo partly specified)"
attribute_measured = "Stability"
unit_symbol = "%"
recorded_result = 18

[[record]]
molecule = "COC(=O)Nc1nc2cc(C(=O)c3ccccc3)ccc2n1COP(=O)(O)OCOC(=O)OC(C)C"
attribute_measured = "Stability"
unit_symbol = "%"
recorded_result = 73

[[record]]
molecule = "COC(=O)Nc1nc2ccc(C(=O)c3ccccc3)cc2[nH]1"
attribute_measured = "Stability"
unit_symbol = "%"
recorded_result = 100

